biological target: HIV-1 REJ04541 Env (HIV-1); experiment: cell-based or functional assay
REPORTED_METRIC: IC50, TZM-bl pseudovirus neutralization (µg/mL)
Only the number, expressed in µg/mL, is required.

Data request: Param item = 1489_I13 (PG16) (TCN-120) (antibody, V domains shown) VH: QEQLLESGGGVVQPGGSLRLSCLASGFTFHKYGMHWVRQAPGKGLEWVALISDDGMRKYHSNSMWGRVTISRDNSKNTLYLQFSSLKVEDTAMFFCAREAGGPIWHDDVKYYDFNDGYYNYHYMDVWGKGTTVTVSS VL: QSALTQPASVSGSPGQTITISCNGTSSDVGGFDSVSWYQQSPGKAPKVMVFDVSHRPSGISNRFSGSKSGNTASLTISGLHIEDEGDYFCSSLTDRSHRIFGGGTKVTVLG ; retrieve measured IC50, TZM-bl pseudovirus neutralization.
Data returned: 0.34

All figures here come from patent US20160264649A1.
